Assay Target: 5-hydroxytryptamine receptor 1A (Rattus norvegicus, UniProt P19327)
Sequence (P19327 whole entry): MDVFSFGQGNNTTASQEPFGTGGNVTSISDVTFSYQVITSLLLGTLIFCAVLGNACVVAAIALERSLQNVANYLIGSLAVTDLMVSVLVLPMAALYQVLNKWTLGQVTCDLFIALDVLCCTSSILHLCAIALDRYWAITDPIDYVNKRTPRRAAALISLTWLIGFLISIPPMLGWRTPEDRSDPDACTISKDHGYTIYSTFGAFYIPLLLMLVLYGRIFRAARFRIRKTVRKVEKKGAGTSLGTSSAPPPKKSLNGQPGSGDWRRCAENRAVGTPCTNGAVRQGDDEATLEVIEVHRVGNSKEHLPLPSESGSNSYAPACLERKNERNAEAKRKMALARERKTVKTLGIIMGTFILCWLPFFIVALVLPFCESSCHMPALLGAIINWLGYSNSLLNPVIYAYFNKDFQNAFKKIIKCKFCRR
Observable: Ki (nM)
Give the quantity in nM, number only.

Query :: Form field: reported Ki of `Cc1cn2c3c(=O)n(C)c(=O)n(C)c3nc2n1CCCN1CCN(c2cccc(Cl)c2)CC1`
Result :: 17.1

Query :: Form field: reported Ki of `Cn1c(=O)c2c(nc3n(CCCN4CCN(c5ccccc5)CC4)c(-c4ccccc4)cn23)n(C)c1=O`
Result :: 96.5
